biological target: HRgpA-6H (Porphyromonas gingivalis) (UniProt P28784); experiment: ELISA, FASEBA Fab on coated HRgpA-6H
// assign t if OD450nm falls strictly below 0.8, else f (ties count as f)

Worked examples follow.
Ask | Problem: For the binder KB001 mouse Fab VL N54R (Fab, V domains shown) VH: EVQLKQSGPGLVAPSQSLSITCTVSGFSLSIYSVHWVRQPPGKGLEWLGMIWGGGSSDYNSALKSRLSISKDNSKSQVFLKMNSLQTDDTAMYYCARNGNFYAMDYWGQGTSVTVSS VL: QIVLTQSPAIMSASLGERVTMTCTASSSVSSSFLHWYQQKPGSSPQLWIYSTSRLASGVPARFSGSGSGTSYSLTISSMEAEDAATYYCHQYHHSPYIYTFGGGTKLEIK , is OD450nm under 0.8?
Reply | f

Ask | Try this binder too: KB001 mouse Fab VL A25V (Fab, V domains shown) VH: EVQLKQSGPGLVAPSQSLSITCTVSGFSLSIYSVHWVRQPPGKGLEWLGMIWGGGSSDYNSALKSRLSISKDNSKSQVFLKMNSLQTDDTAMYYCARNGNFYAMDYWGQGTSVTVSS VL: QIVLTQSPAIMSASLGERVTMTCTVSSSVSSSFLHWYQQKPGSSPQLWIYSTSNLASGVPARFSGSGSGTSYSLTISSMEAEDAATYYCHQYHHSPYIYTFGGGTKLEIK
Reply | t

Ask | Try this binder too: KB001 mouse Fab VL S27K/S68Y (Fab, V domains shown) VH: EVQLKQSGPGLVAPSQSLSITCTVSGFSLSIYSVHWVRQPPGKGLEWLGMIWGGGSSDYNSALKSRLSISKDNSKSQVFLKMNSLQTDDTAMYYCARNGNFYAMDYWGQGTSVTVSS VL: QIVLTQSPAIMSASLGERVTMTCTASKSVSSSFLHWYQQKPGSSPQLWIYSTSNLASGVPARFSGSGYGTSYSLTISSMEAEDAATYYCHQYHHSPYIYTFGGGTKLEIK
Reply | t

Turning to the following binder.
Ask | Problem: For the binder KB001 mouse Fab VL T52M (Fab, V domains shown) VH: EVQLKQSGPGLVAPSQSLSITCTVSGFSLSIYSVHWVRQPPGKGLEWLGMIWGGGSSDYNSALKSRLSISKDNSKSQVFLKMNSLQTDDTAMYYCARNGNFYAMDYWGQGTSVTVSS VL: QIVLTQSPAIMSASLGERVTMTCTASSSVSSSFLHWYQQKPGSSPQLWIYSMSNLASGVPARFSGSGSGTSYSLTISSMEAEDAATYYCHQYHHSPYIYTFGGGTKLEIK , is OD450nm under 0.8?
Reply | t
